TEST SYSTEM: T1, NanoLuc luciferase (NLuc)-ENL YEATS fusion protein (human, UniProt Q03111 1-148)
T1 sequence (looked up): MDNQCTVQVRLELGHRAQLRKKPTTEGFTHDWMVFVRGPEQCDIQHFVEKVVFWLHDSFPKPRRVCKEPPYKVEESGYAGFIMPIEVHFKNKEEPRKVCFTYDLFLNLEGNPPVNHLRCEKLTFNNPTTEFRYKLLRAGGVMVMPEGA
ASSAY COMMENT: FRET or BRET
*: point of attachment. 2Furoyl = O=C(c1ccco1)*
PARAMETER MEASURED: pIC50
Reminder that pIC50 is minus the log10 of a molar concentration.

Task item: Which measured pIC50 value corresponds to Ac-VYCYK(2Furoyl)-NH2 [tENL-S1f] ?
Reply: 5.19
